Biological target: NS5B570-Con1 (Delta-21) (Hepatitis C virus genotype 1b, UniProt Q9WMX2)
Experiment: biochemical
pIC50: −log10 of the molar value.
MEASURE: pIC50

# input compound: `C[C@@]1(O)[C@H](F)[C@@H](COP(=O)(O)OP(=O)(O)OP(=O)(O)O)O[C@H]1n1cnc2c(=O)[nH]c(N)nc21` ; wanted: its pIC50
> 6.00
